B1: COUP transcription factor 1, residues 83 to 159; numbered along this chain, P10589 (parent)
chain: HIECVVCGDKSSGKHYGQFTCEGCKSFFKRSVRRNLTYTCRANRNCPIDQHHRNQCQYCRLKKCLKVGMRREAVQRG

Variants of: B1
Assay: abundance fitness (aPCA) (normalised: wild type 0, dead -1); higher = more abundant; growth selection in yeast, the domain comes from the species named
Conditions: Homo sapiens
Where abundance fitness equals or exceeds -0.2, the correct label is 1; where it does not, the label is 0.

>>> class_label("HIECVVCGDKSSGKHKGQFTCEGCKSFFKRSVRRNLTYTCRANRNCPIDQHHRNQCQYCRLKKCLKVGMRREAVQRG")
0
>>> class_label("HIECVVCGDKSSGKHYGQFTCEGCKSFFKRSVRRNLTSTCRANRNCPIDQHHRNQCQYCRLKKCLKVGMRREAVQRG")
0
>>> class_label("HIECVVCGDKSSGKHYGQFTCEHCKSFFKRSVRRNLTYTCRANRNCPIDQHHRNQCQYCRLKKCLKVGMRREAVQRG")
1
>>> class_label("HIECVVCGDKSSGKHYGQFTCEGCKSFFKRSVRRNLTVTCRANRNCPIDQHHRNQCQYCRLKKCLKVGMRREAVQRG")
0

Ask | State whether the measured abundance fitness reaches -0.2, counting equality as reaching it, for `HIECVVCGDKSSGKHYGQFTCEGCKSFFKRSVRRNLTYTCRANRNCPIDQHGRNQCQYCRLKKCLKVGMRREAVQRG`
Reply | 1

Ask | State whether the measured abundance fitness reaches -0.2, counting equality as reaching it, for `HIECVVCGDKSSGKHYGQFTCEGCKSFFKRIVRRNLTYTCRANRNCPIDQHHRNQCQYCRLKKCLKVGMRREAVQRG`
Reply | 1

Ask | State whether the measured abundance fitness reaches -0.2, counting equality as reaching it, for `HIECVVCGDKSSGKHYGQFTCEGCKSFFKRSVRRNLTYTCRANRNCPIDQHHRNQCQYCRLKKCLKVGMRREAVLRG`
Reply | 1

Ask | State whether the measured abundance fitness reaches -0.2, counting equality as reaching it, for `HIECVVCGDKSSGKHYGQFTCEGCKSFFKRSVRRNLTYTCRANRNCPIDQHHRNQCQYCRLKKCLKVGMRREAVQRR`
Reply | 1

Ask | State whether the measured abundance fitness reaches -0.2, counting equality as reaching it, for `HIECVVCGDKSSGKHYGQFTCEGCKSFFDRSVRRNLTYTCRANRNCPIDQHHRNQCQYCRLKKCLKVGMRREAVQRG`
Reply | 1

Ask | State whether the measured abundance fitness reaches -0.2, counting equality as reaching it, for `HIECVVCGDKSSGKHYGQFTCEDCKSFFKRSVRRNLTYTCRANRNCPIDQHHRNQCQYCRLKKCLKVGMRREAVQRG`
Reply | 1

Ask | State whether the measured abundance fitness reaches -0.2, counting equality as reaching it, for `HIECVVCGDKSSGKHYGQFTCEGCKSFFKRSVRRNLTYTCRAIRNCPIDQHHRNQCQYCRLKKCLKVGMRREAVQRG`
Reply | 0
